assay-summary: Intact half-life during simulated gastric fluid (SGF) digestion
setup-conditions: purified proteins, chip electrophoresis
This section presents molecules with their documented Half-life values.

molecule: SEQID-00622: protein of the 168 nutritive polypeptide library (protein, listed as Oryza sativa, source: /note="subsp. japonica", protein of the 168 nutritive polypeptide library) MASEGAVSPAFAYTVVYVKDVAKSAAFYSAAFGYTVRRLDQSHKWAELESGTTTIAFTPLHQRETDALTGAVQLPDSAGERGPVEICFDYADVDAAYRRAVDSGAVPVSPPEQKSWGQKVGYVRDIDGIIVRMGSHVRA
Half-life / min: 6.6

molecule: SEQID-00510: nutritive polypeptide naturally produced in Turkey, recombinantly expressed in E. coli (protein, Meleagris gallopavo, nutritive polypeptide naturally produced in Turkey, recombinantly expressed in E. coli) MVPIAEKMAEKQEEPSNTQNGEPDNAEEGEGKKKKKVKREDLPPFEIVTGERLPAIFFKFQFRNVEYSSGRNKTFLCYVVETQGKESTTSRGYLEDEHAASHAEIAFFNTILPKCESSLRYNITWYVSSSPCVTCADRISETLRKNKNLRLTIMVGRLFMWEEPEMQAALKKMKSAGCKLRIMKPQDFEYVWQNFVEQEEGEEAKAFVPWEDIQENFQYYEEKLAEILQ
Half-life / min: 0.3
